# ASSAY_NOTES: Pharmacokinetics and tissue distribution in BALB/c mice
# Type: in vivo
# RUN_PARAMETERS: female, mouse, heart, iv, 5 mg/kg
MEASUREMENT_KIND: half-life (min)
Please state the figure in min; there is no need to write the unit.

Record summary for O=C1C(NCc2ccc(F)cc2)=CC2=NCCc3c[nH]c1c32 [FBA-TPQ] : reported half-life = 30.1

====

# ASSAY_NOTES: MTT cell survival assay, IMR-90 normal fibroblasts
# Assay type: cell-based
# RUN_PARAMETERS: human, IMR-90 normal fetal fibroblast cells, read-out: Cytotoxicity IC50
MEASUREMENT_KIND: IC50 at 72 h (µM)
Please state the figure in µM; there is no need to write the unit.

Record summary for "O=C1C(NCc2ccc(F)cc2)=CC2=NCCc3c[nH]c1c32" : reported IC50 at 72 h = 5.82

====

# ASSAY_NOTES: Pharmacokinetics and tissue distribution in BALB/c mice
# Type: in vivo
# RUN_PARAMETERS: female, mouse, brain, iv, 5 mg/kg
MEASUREMENT_KIND: AUC (ng·h/mL)
Please state the figure in ng·h/mL; there is no need to write the unit.

Record summary for "O=C1C(NCc2ccc(F)cc2)=CC2=NCCc3c[nH]c1c32" : reported AUC = 138

====

# ASSAY_NOTES: Pharmacokinetics and tissue distribution in BALB/c mice
# Format: in vivo
# RUN_PARAMETERS: female, mouse, liver, iv, 5 mg/kg
MEASUREMENT_KIND: AUC
Please append the unit to your numeric answer.

Record summary for "O=C1C(NCc2ccc(F)cc2)=CC2=NCCc3c[nH]c1c32" : reported AUC = 949 ng·h/mL

====

# ASSAY_NOTES: Pharmacokinetics and tissue distribution in BALB/c mice
# Type: in vivo
# RUN_PARAMETERS: female, mouse, plasma, ip, 10 mg/kg
MEASUREMENT_KIND: AUC (ng·h/mL)
Please state the figure in ng·h/mL; there is no need to write the unit.

Record summary for "O=C1C(NCc2ccc(F)cc2)=CC2=NCCc3c[nH]c1c32" : reported AUC = 338

====

# ASSAY_NOTES: Pharmacokinetics and tissue distribution in BALB/c mice
# Type: in vivo
# RUN_PARAMETERS: female, mouse, brain, ip, 10 mg/kg
MEASUREMENT_KIND: half-life (h)
Please state the figure in h; there is no need to write the unit.

Record summary for "O=C1C(NCc2ccc(F)cc2)=CC2=NCCc3c[nH]c1c32" : reported half-life = 1.83

====

# ASSAY_NOTES: Pharmacokinetics and tissue distribution in BALB/c mice
# Format: in vivo
# RUN_PARAMETERS: female, mouse, plasma, ip, 10 mg/kg
# Experimental: To assess the disposition of FBA-TPQ in vivo, pharmacokinetic studies in BALB/c were conducted. […] The average FBA-TPQ concentrations in plasma and tissues at each of the time points following intravenous and intraperitoneal administrations were used for pharmacokinetic analyses using a one- or two-compartmental model, respectively. […] Bioavailability (X) was calculated as X = [AUCip × doseiv]/[AUCiv × doseip].
MEASUREMENT_KIND: half-life (min)
Please state the figure in min; there is no need to write the unit.

Record summary for O=C1C(NCc2ccc(F)cc2)=CC2=NCCc3c[nH]c1c32 [FBA-TPQ] : reported half-life = 13.1
